experimental_details: in vitro cytotoxicity, MTT
Assay type: cell-based
details: human, HL7702 normal hepatic cells; normal hepatic cell line HL7702, MTT, n = 3, mean ± SD
Consider the following compounds and their measured IC50 readings.
The reply should contain only the number, in µM.

Some entries whose results are on file:
{"columns": ["compound", "IC50 / µM"],
 "data": [
  ["Cc1cc(O)c2c3c(ccc2c1)C(=O)c1c(ccc([C@H]2C[C@@H](O)[C@H](O)[C@@H](C)O2)c1O)C3=O [Compound 3, dehydroxyaquayamycin]", 49.3],
  ["CCCCCCCCCCCC1=N/C(=C\\c2[nH]c(-c3ccc[nH]3)cc2OC)C=C1 [Compound 4, undecylprodigiosin]", 12.5]
]}

Data point: Cc1cc(O)c2c3c(ccc2c1)C(=O)c1c(ccc(C2CC4OC5CC(=O)C(C)OC5OC4C(C)O2)c1O)C3=O (stereo not shown) [Compound 2, marangucycline B] ; IC50 = 3.67
